Origin of values: ChEMBL document CHEMBL6134819

Below, each entry is listed alongside its reported pIC50.
Biological target: Voltage-gated inwardly rectifying potassium channel KCNH2 (Homo sapiens)
Sequence (Q12809 whole entry): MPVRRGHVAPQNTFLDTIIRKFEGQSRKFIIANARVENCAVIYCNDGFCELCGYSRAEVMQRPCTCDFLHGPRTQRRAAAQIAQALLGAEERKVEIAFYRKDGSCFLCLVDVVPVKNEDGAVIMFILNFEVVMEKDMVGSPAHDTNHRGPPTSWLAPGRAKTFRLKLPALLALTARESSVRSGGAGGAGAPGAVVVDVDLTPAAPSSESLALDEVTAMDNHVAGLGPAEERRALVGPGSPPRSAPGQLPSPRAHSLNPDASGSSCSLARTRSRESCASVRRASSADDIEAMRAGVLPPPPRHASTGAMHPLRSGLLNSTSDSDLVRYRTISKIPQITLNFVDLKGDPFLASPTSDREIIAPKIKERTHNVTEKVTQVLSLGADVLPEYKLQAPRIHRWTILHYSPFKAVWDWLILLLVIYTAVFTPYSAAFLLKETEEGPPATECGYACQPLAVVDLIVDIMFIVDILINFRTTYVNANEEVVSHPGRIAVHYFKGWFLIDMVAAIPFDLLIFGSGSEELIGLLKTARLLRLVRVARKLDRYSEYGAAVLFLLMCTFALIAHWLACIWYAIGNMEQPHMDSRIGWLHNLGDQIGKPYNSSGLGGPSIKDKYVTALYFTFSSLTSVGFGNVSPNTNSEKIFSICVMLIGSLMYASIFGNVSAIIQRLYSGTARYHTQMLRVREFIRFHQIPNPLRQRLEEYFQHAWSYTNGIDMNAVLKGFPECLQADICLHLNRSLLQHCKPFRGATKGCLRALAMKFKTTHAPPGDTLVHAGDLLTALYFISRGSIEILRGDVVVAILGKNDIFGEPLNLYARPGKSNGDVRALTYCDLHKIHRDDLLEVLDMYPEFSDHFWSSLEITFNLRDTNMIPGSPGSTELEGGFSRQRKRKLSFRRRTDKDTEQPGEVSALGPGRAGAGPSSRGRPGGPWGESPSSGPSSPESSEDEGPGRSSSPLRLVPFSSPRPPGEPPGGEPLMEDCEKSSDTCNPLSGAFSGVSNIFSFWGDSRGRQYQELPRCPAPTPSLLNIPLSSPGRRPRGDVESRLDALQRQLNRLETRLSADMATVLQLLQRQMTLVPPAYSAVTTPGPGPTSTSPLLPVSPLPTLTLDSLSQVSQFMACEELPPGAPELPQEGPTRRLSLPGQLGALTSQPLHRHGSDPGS
Test: Inhibition of human ERG by whole cell patch clamp assay
// pIC50 here means minus log10 of the molar concentration (mol/L)

1) Cl.O=S(=O)(c1ccccc1)n1ncc2cc(-n3cc(CN[C@@H]4C[C@H]4c4ccc(F)c(F)c4)nn3)ccc21 | 6.24

Please examine the following record next.
The compound Fc1ccc([C@@H]2C[C@H]2NCc2cn(-c3ccc4[nH]ncc4c3)nn2)cc1F , tested on Voltage-gated inwardly rectifying potassium channel KCNH2 (Homo sapiens), showed pIC50 of 6.21

###

Target: Lysine-specific histone demethylase 1A (Homo sapiens)
Experiment: Inhibition of human recombinant LSD1 (852 residues) incubated for 1 hr by HTRF method
Below, each entry is listed alongside its reported IC50.
Report as a plain number; the unit nM is understood.

Consider the worked cases shown below.
1) O=C(c1ccccc1)n1ncc2cc(-n3cc(CN[C@@H]4C[C@H]4c4ccc(F)c(F)c4)nn3)ccc21 | 7.55
2) O=C(C1CCCC1)n1ncc2cc(-n3cc(CN[C@@H]4C[C@H]4c4ccc(F)c(F)c4)nn3)ccc21 | 12
3) CC(C)C(=O)n1ncc2cc(-n3cc(CN[C@@H]4C[C@H]4c4ccc(F)c(F)c4)nn3)ccc21 | 9.97
4) Fc1ccc([C@@H]2C[C@H]2NCc2cn(-c3cnc4[nH]ncc4c3)nn2)cc1F | 20.9
5) COc1cc2[nH]ncc2cc1-n1cc(CN[C@@H]2C[C@H]2c2ccc(F)c(F)c2)nn1 | 3.46
6) CCS(=O)(=O)n1ncc2cc(-n3cc(CN[C@@H]4C[C@H]4c4ccc(F)c(F)c4)nn3)ccc21 | 7.77
7) Fc1ccc([C@@H]2C[C@H]2NCc2cn(-c3cc4cn[nH]c4cc3F)nn2)cc1F | 6.45
8) Fc1ccc([C@@H]2C[C@H]2NCc2cn(CCc3ccc4[nH]ncc4c3)nn2)cc1F | 57.9

The compound O=C(C1CCC1)n1ncc2cc(-n3cc(CN[C@@H]4C[C@H]4c4ccc(F)c(F)c4)nn3)ccc21 , tested on Lysine-specific histone demethylase 1A (Homo sapiens), showed IC50 of 15.5

The compound O=S(=O)(C1CC1)n1ncc2cc(-n3cc(CN[C@@H]4C[C@H]4c4ccc(F)c(F)c4)nn3)ccc21 , tested on Lysine-specific histone demethylase 1A (Homo sapiens), showed IC50 of 4.3
